assayText: Selectivity index, ratio of IC50 for cytotoxicity against mouse NIH3T3 cells to IC50 for cytotoxicity against human MCF7 cells
Format: toxicity, cell-based
testSettings: NIH3T3 cells versus MCF7 cells, read-out: Ratio IC50
The label is t for selectivity ratio below 2 and f for selectivity ratio equal to or exceeding 2.

1) CN(C)CCCN1CCN(CC(=O)Nc2ccc(-c3nc4cc(Cl)ccc4o3)cc2)CC1 :: f
2) Cc1cc(-c2nc3cc(F)ccc3o2)ccc1NC(=O)CN1CCN(CCCN(C)C)CC1 :: f
3) Cc1ccc2oc(-c3ccc(NC(=O)CCl)cc3)nc2c1 :: f
4) Cc1cc(-c2nc3ccccc3o2)ccc1NC(=O)CCl :: t
5) CN(C)CCCN1CCN(CC(=O)Nc2ccc(-c3nc4ccccc4o3)cc2)CC1 :: t
6) Cc1cc(-c2nc3cc(Cl)ccc3o2)ccc1NC(=O)CN1CCN(CCCN(C)C)CC1 :: t
7) Cc1cc(-c2nc3cc(F)ccc3o2)ccc1NC(=O)CCl :: t
8) Cc1ccc2oc(-c3ccc(NC(=O)CN4CCN(CCN(C)C)CC4)cc3)nc2c1 :: t
9) Cc1ccc2oc(-c3ccc(NC(=O)CN4CCN(CCCN(C)C)CC4)c(C)c3)nc2c1 :: t
10) Cc1ccc2oc(-c3ccc(NC(=O)CN4CCN(CCCN(C)C)CC4)cc3)nc2c1 :: t
11) Cc1cc(-c2nc3ccccc3o2)ccc1NC(=O)CN1CCN(CCN(C)C)CC1 :: t
12) Cc1ccc2oc(-c3ccc(NC(=O)CCl)c(C)c3)nc2c1 :: t
13) Cc1cc(-c2nc3ccccc3o2)ccc1NC(=O)CN1CCN(CCCN(C)C)CC1 :: f
14) Cc1cc(-c2nc3cc(Cl)ccc3o2)ccc1NC(=O)CN1CCN(CCN(C)C)CC1 :: t
15) CN(C)CCN1CCN(CC(=O)Nc2ccc(-c3nc4cc(F)ccc4o3)cc2)CC1 :: f
16) O=C(CCl)Nc1ccc(-c2nc3cc(F)ccc3o2)cc1 :: f
17) Cc1ccc2oc(-c3ccc(NC(=O)CN4CCN(CCN(C)C)CC4)c(C)c3)nc2c1 :: t
18) Cc1cc(-c2nc3cc(Cl)ccc3o2)ccc1NC(=O)CCl :: t
19) CN(C)CCCN1CCN(CC(=O)Nc2ccc(-c3nc4cc(F)ccc4o3)cc2)CC1 :: t
20) CN(C)CCN1CCN(CC(=O)Nc2ccc(-c3nc4ccccc4o3)cc2)CC1 :: t
21) Cc1cc(-c2nc3cc(F)ccc3o2)ccc1NC(=O)CN1CCN(CCN(C)C)CC1 :: f
22) CN(C)CCN1CCN(CC(=O)Nc2ccc(-c3nc4cc(Cl)ccc4o3)cc2)CC1 :: f
